B1: ETS2 (parent)
chain: TSGKRYVYRFVCDLQNLLGFTPEE

# Variants of: B1
# TEST_DESCRIPTION: protein stability index of a GFP-peptide fusion (GPS, HEK-293T) (PSI 1-6); higher = more stable;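 further: lentivirally expressed fusions sorted by FACS into six bins by GFP to DsRed ratio, PSI derived from sequencing read proportions per bin multiplied by bin number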
# CONDITION_LABEL: c terminus: a fixed tail appended
RESULT_TYPE: protein stability index
Answer with the value's number alone.

# MUT, protein stability index
rows = [
    ("E24H", 2.03),
    ("L17G", 2.31),
    ("L17E", 3.13),
    ("E24V", 2.51),
    ("E23I", 2.43),
    ("L14Q", 2.81),
    ("P22I", 2.24),
    ("L17M", 1.47),
    ("Q15R", 3),
    ("E23H", 3.12),
]

Summary for this variant, Q15S : protein stability index is 2.07

Recorded result, E23V , protein stability index: 2.1
